Cited source for all entries: patent US20190338002A1

Molecular target: T1, human alpha CGRP (SEQ ID NO: 80) (human, not fully specified)
T1 construct: also called human αCGRP; hαCGRP
T1 peptide: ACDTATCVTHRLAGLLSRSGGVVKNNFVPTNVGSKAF
Assay: SPR, Biacore T200, 37 C; biotinylated mutein captured, human alpha CGRP analyte
So I've got a bunch of binders here, and I need their pKd values.
Keep in mind that pKd stands for -log10 of concentration in molar terms.

Please indicate pKd recorded for tag-free lipocalin mutein SEQ ID NO: 93 (designed binder, biotinylated by NHS chemistry for capture in SPR; also called tag-free mutein 93) GQDSTSDLIHAPPLSKVPLQQNFQDNQFHGKWYVVGRAGNDVLREDKDPEKMEATIYELKEDKSYQVTDVGFVQKRCMYVTHTFVPGSQPGEFTLGNIESYPGVTSALVRVVSTDYNQHAMVFVKLVKQNRELFEITLYGRTKELTSELKENFIRFSKSLGLPENHIVFPVPIDQCIDD
10.96

Please indicate pKd recorded for tag-free lipocalin mutein SEQ ID NO: 88 (designed binder, biotinylated by NHS chemistry for capture in SPR; also called tag-free mutein 88) GQDSTSDLIPAPPLSKVPLQQNFQDNQFHGKWYVVGRAGNDVLREDKDPEKMEATIYELKEDKSYNVTDVGFVQKRCMYVTHTFVPGSQPGEFTLGNIESYPGVTSALVRVVSTDYNQHAMVFVKLVKQNRELFEITLYGRTKELTSELKENFIRFSKSLGLPENHIVFPVPIDQCIDG
11.10

Please indicate pKd recorded for tag-free lipocalin mutein SEQ ID NO: 92 (designed binder, biotinylated by NHS chemistry for capture in SPR; also called tag-free mutein 92) GQDSTSDLKPAPPLSKVPLQQNFQDNQFHGKWYVVGRAGNDVLREDKDPEKMEATIYELKEDKSYQVTDVGFVQKRCMYVTHTFVPGSQPGEFTLGNIESYPGVTSALVRVVSTDYNQHAMVFVKLVKQNRELFEITLYGRTKELTSELKENFIRFSKSLGLPENHIVFPVPIDQCIDD
11.00

Please indicate pKd recorded for tag-free lipocalin mutein SEQ ID NO: 91 (designed binder, biotinylated by NHS chemistry for capture in SPR; also called tag-free mutein 91) GQDSTSDLIHAPPLSKVPLQQNFQDNQFHGKWYVVGRAGNDVLREDKDPEKMEATIYELKEDKSYNVTDVGFVQKRCMYVTHTFVPGSQPGEFTLGNIESYPGVTSALVRVVSTDYNQHAMVFVKLVKQNRELFEITLYGRTKELTSELKENFIRFSKSLGLPENHIVFPVPIDQCIDG
11.00

Please indicate pKd recorded for tag-free lipocalin mutein SEQ ID NO: 89 (designed binder, biotinylated by NHS chemistry for capture in SPR; also called tag-free mutein 89) GQDSTSDLIPAPPLSKVPLQQNFQDNQFHGKWYVVGRAGNDVLREDKDPEKMEATIYELKEDKSYQVTDVGFVQKRCMYVTHTFVPGSQPGEFTLGNIESYPGVTSALVRVVSTDYNQHAMVFVKLVKQNRELFEITLYGRTKELTSELKENFIRFSKSLGLPENHIVFPVPIDQCIDD
11.22

Please indicate pKd recorded for tag-free lipocalin mutein SEQ ID NO: 87 (designed binder, biotinylated by NHS chemistry for capture in SPR; also called tag-free mutein 87) GQDSTSDLIPAPPLSKVPLQQNFQDNQFQGKWYVVGWAGNTLLREDKDPIKMQAMIYELKEDKSYNVTWVYFADKKINYHIETFVPGSQPGEFTLGTIKSYPGETPILVRVVSTNYNQHAMVFFKGVNQNREIFEIVLYGRTKELTNELKENFIRFSKSLGLPENHIVFPVPIDQEIDG
10.09

Please indicate pKd recorded for tag-free lipocalin mutein SEQ ID NO: 90 (designed binder, biotinylated by NHS chemistry for capture in SPR; also called tag-free mutein 90) GQDSTSDLKPAPPLSKVPLQQNFQDNQFHGKWYVVGRAGNDVLREDKDPEKMEATIYELKEDKSYNVTDVGFVQKRCMYVTHTFVPGSQPGEFTLGNIESYPGVTSALVRVVSTDYNQHAMVFVKLVKQNRELFEITLYGRTKELTSELKENFIRFSKSLGLPENHIVFPVPIDQCIDG
10.92
